- ASSAY_SYSTEM: recombinant wildtype and mutated PPO (Amaranthus PPO2: PPX2L_WC SEQ ID NO 2, PPX2L_AC SEQ ID NO 4, dG210 SEQ ID NO 6 & 8) (Amaranthus tuberculatus, UniProt Q0NZW9, D133A/F420M/R128N)
- Sequence (Q0NZW9 1-534 R128N/D133A/F420M): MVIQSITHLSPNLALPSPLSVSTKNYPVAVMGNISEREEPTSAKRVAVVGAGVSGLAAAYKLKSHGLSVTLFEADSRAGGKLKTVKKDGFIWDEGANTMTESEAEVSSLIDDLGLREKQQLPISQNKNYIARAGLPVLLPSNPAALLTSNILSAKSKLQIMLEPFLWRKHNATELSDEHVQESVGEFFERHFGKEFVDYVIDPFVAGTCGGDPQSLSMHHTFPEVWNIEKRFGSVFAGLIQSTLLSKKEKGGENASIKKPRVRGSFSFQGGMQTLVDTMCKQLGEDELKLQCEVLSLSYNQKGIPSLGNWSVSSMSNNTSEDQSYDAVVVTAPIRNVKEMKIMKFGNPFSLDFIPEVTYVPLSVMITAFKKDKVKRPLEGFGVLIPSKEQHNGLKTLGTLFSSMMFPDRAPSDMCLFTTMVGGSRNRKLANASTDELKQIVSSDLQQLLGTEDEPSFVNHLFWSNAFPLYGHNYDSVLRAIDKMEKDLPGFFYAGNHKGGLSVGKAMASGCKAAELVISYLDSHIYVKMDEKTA
- PROTOCOL: biochemical
- CONDITIONS: IC50 (M)
PROPERTY_LABEL: IC50 (M)
Write the number in M without appending the unit.

In: Any idea what IC50 was measured for CCOC(=O)C(Cl)Cc1cc(-n2nc(C)n(C(F)F)c2=O)c(F)cc1Cl (stereo not drawn) ?
Out: 1.88e-07

In: Any idea what IC50 was measured for "C=CCOC(=O)C(C)(C)OC(=O)c1cc(-n2c(=O)cc(C(F)(F)F)n(C)c2=O)ccc1Cl" ?
Out: 2.84e-08

In: Any idea what IC50 was measured for "CCOC(=O)COc1ncccc1Oc1cc(-n2c(=O)cc(C(F)(F)F)n(C)c2=O)c(F)cc1Cl" ?
Out: 1.92e-07

In: Any idea what IC50 was measured for "C#CCN1C(=O)COc2cc(F)c(N3C(=O)C4=C(CCCC4)C3=O)cc21" ?
Out: 6.15e-06

In: Any idea what IC50 was measured for "CCOc1cc(Oc2ccc(C(F)(F)F)cc2Cl)ccc1[N+](=O)[O-]" ?
Out: 3.91e-07

In: Any idea what IC50 was measured for "CS(=O)(=O)NC(=O)c1cc(Oc2ccc(C(F)(F)F)cc2Cl)ccc1[N+](=O)[O-]" ?
Out: 1.07e-05

In: Any idea what IC50 was measured for CCOC(=O)C(C)OC(=O)c1cc(Oc2ccc(C(F)(F)F)cc2Cl)ccc1[N+](=O)[O-] (stereo not drawn) ?
Out: 1.67e-07

In: Any idea what IC50 was measured for COC(=O)C(OC)Oc1ccccc1Oc1cc(-n2c(=O)cc(C(F)(F)F)n(C)c2=O)c(F)cc1Cl (stereo not drawn) ?
Out: 1.2e-07

In: Any idea what IC50 was measured for "C#CCN1C(=O)C(F)(F)Oc2cc(F)c(-n3c(=O)cc(C(F)(F)F)n(C)c3=O)cc21" ?
Out: 5.94e-08

In: Any idea what IC50 was measured for COC(Oc1ccccc1Oc1cc(-n2c(=O)cc(C(F)(F)F)n(C)c2=O)c(F)cc1Cl)C(=O)OC1CCCCC1 (stereo not drawn) ?
Out: 1.48e-07

* * *

- ASSAY_SYSTEM: recombinant wildtype and mutated PPO (Amaranthus PPO2: PPX2L_WC SEQ ID NO 2, PPX2L_AC SEQ ID NO 4, dG210 SEQ ID NO 6 & 8) (Amaranthus tuberculatus, UniProt Q0NZW9, D133A/F420M/R128G)
- Sequence (Q0NZW9 1-534 R128G/D133A/F420M): as the sequence (Q0NZW9 1-534 R128N/D133A/F420M) above, with N128G counted along it
- PROTOCOL: biochemical
- CONDITIONS: IC50 (M)
PROPERTY_LABEL: IC50 (M)
Write the number in M without appending the unit.

In: Any idea what IC50 was measured for COC(Oc1ccccc1Oc1cc(-n2c(=O)cc(C(F)(F)F)n(C)c2=O)c(F)cc1Cl)C(=O)OC1CCCCC1 (stereo not drawn) ?
Out: 5.14e-08

In: Any idea what IC50 was measured for COC(=O)C(OC)Oc1ccccc1Oc1cc(-n2c(=O)cc(C(F)(F)F)n(C)c2=O)c(F)cc1Cl (stereo not drawn) ?
Out: 4.76e-08

In: Any idea what IC50 was measured for "C#CCN1C(=O)C(F)(F)Oc2cc(F)c(-n3c(=O)n(C)c(=S)n(C)c3=O)cc21" ?
Out: 1.26e-08
